- target_of_assay: human σ2/TMEM97 receptor (Homo sapiens)
- Construct: expressed in transfected cells; host or cells: HEK-293
- method_notes: Binding assay to human σ2/TMEM97 receptor ([3H]-DTG)
- stated_conditions: transfected HEK-293 membranes, 10 nM [3H]-DTG, 25° C., 120 minutes; read-out: Binding σ-[…] (binding to σ2-receptor expressed as Ki)
value_kind: Ki

CC1(C)CN(C(=O)N2CCC3(CCN(Cc4cc(C#N)c(F)cc4F)CC3)C2)c2cccnc21 [Example 158]: < 100 nM
Cc1ccc2c(n1)C(C)(C)CN2C(=O)N1CCC(N(C)Cc2ccc(N(C)C)cc2)CC1 [Example 68]: < 100 nM
CN(C)[C@@H](CNC(=O)N1CC(C)(C)c2ncccc21)c1ccccc1 [Example 5]: > 1000 nM
Cc1ccc2c(n1)C(C)(C)CN2C(=O)[C@H]1CC[C@H](N(C)Cc2c(F)cccc2F)CC1 [Example 171]: < 100 nM
O=C(N1CCC[C@H](NCCc2ccccc2)C1)N1CCc2ncccc21 [Example 101]: 100 to 500 nM

Return reported Ki; argument: Cc1ccc2c(n1)C(C)(C)CN2C(=O)[C@H]1CC[C@H](N(C)Cc2ccc(F)cn2)CC1 [Example 179]
100 to 500 nM

Can you look up the measured Ki of CN(Cc1ccccc1)[C@H]1CC[C@@H](NC(=O)N2CC(C)(C)c3ncccc32)CC1 [Example 72] for me?
< 100 nM

Given the entry Cc1ccc2c(n1)C(C)(C)CN2C(=O)N[C@@H]1CCN(Cc2ccccc2)C1 [Example 18] , report its measured Ki.
100 to 500 nM

* * *

- target_of_assay: human σ1 receptor (Homo sapiens, UniProt Q99720)
- Construct: expressed in transfected cells; host or cells: HEK-293
- Sequence (Q99720 whole entry): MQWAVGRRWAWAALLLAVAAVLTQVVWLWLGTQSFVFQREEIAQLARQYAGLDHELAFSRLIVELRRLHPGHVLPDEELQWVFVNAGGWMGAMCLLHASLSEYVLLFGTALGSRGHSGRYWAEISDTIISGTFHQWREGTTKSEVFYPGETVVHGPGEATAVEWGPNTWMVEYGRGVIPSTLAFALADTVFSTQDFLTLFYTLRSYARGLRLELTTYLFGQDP
- method_notes: Human σ1 receptor radioligand assay ([3H](+)-pentazocine)
- Assay type: binding
- stated_conditions: transfected HEK-293 membranes, 5 nM [3H](+)-pentazocine, 37° C., 120 minutes; read-out: Binding σ-[…] (binding to σ1-receptor expressed as Ki)
value_kind: Ki

Cc1ccc2c(n1)C(C)(C)CN2C(=O)NC1CCN(Cc2cccc(F)c2)CC1 [Example 26]: < 100 nM
Cc1ccc2c(n1)C(C)(C)CN2C(=O)N1CCC2(CCN(C(C)c3ccccc3)CC2)C1 (stereo not shown) [Example 96]: 100 to 500 nM
CC1(C)CN(C(=O)NC2CCN(Cc3cccc(F)c3)CC2)c2cccnc21 [Example 47]: < 100 nM

Next item in the queue.
Look up Ki with human σ1 receptor (Homo sapiens, UniProt Q99720) for this compound: COc1ccc(CN2CCC3(CC2)CCN(C(=O)N2CC(C)(C)c4nc(C)ccc42)C3)cc1 [Example 103]
100 to 500 nM

* * *

- target_of_assay: human σ1 receptor (Homo sapiens, UniProt Q99720)
- Construct: expressed in transfected cells; host or cells: HEK-293
- method_notes: Human σ1 receptor radioligand assay ([3H](+)-pentazocine)
- Format: binding
- stated_conditions: transfected HEK-293 membranes, 5 nM [3H](+)-pentazocine, 37° C., 120 minutes; read-out: Binding σ-[…] (binding to σ1-receptor expressed as Ki)
pKi: −log10 of the molar value.
Parameter: pKi. Scope: all listed entries.

Consider the compound shown here: CN[C@@H](CNC(=O)N1CC(C)(C)c2nc(C)ccc21)c1ccccc1 What is its recorded pKi?
6.30 to 7.00

// query pKi value for entry CN(Cc1ccc(F)c(C#N)c1)C1CCN(C(=O)N2CC(C)(C)c3ncccc32)CC1
< 6.00

Reported pKi for CN(Cc1ccccc1)[C@H]1CC[C@H](NC(=O)N2CC(C)(C)c3ncccc32)CC1 : what is it?
< 6.00

Reported pKi for Cc1ccc2c(n1)C(C)(C)CN2C(=O)N1CCC(N(C)Cc2cccc(F)c2)CC1 : what is it?
6.00 to 6.30

Entry under review: Cc1ccc2c(n1)C(C)(C)CN2C(=O)[C@H]1CC[C@H](N(C)Cc2ccc(C#N)c(F)c2)CC1 . Reported pKi?
> 7.00

Which value of pKi has been reported for CN(Cc1ccc(C#N)c(F)c1)C1CCN(C(=O)N2CC(C)(C)c3ncccc32)CC1 in the records?
6.00 to 6.30

Can you look up the measured pKi of CC1(C)CN(C(=O)NC2CN(Cc3ccccc3)C2)c2cccnc21 for me?
6.30 to 7.00

* * *

- target_of_assay: human σ2/TMEM97 receptor (Homo sapiens, UniProt Q5BJF2)
- Construct: expressed in transfected cells; host or cells: HEK-293
- Sequence (Q5BJF2 whole entry): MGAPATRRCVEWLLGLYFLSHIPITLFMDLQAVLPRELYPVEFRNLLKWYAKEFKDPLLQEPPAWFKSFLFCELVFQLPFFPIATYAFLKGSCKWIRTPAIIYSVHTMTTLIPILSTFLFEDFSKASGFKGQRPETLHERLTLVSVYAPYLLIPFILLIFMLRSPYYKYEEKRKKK
- method_notes: Binding assay to human σ2/TMEM97 receptor ([3H]-DTG)
- stated_conditions: transfected HEK-293 membranes, 10 nM [3H]-DTG, 25° C., 120 minutes; read-out: Binding σ-[…] (binding to σ2-receptor expressed as Ki)
Documented Ki across a set of molecules

Below are worked cases with known answers.
CC1(C)CN(C(=O)NCC2CCN(CCc3ccccc3)CC2)c2cccnc21: 0.1 to 0.5 µM
CN(Cc1ccccc1)C1CCN(C(=O)N2CC(C)(C)c3nc(C#N)ccc32)CC1: < 0.1 µM
CN(Cc1ccccc1)[C@H]1CCCN(C(=O)N2CCc3ncccc32)C1: < 0.1 µM

Consider the molecule shown here: CC1(C)CN(C(=O)NC2CCN(Cc3ccc(F)c(F)c3)CC2)c2cccnc21 What is its recorded Ki?
> 1 µM

Reported Ki, molecule CC1(C)CN(C(=O)N2CCC3(CCN(Cc4ccc(C#N)cc4)CC3)C2)c2cccnc21 : ____
< 0.1 µM

* * *

- target_of_assay: human σ1 receptor (Homo sapiens)
- Construct: expressed in transfected cells; host or cells: HEK-293
- method_notes: Human σ1 receptor radioligand assay ([3H](+)-pentazocine)
- Format: binding
- stated_conditions: transfected HEK-293 membranes, 5 nM [3H](+)-pentazocine, 37° C., 120 minutes; read-out: Binding σ-[…] (binding to σ1-receptor expressed as Ki)
pKi: −log10 of the molar value.
value_kind: pKi

As a guide, the following entries are already answered.
CC1(C)CN(C(=O)N2CCC3(CCN(Cc4ccc(F)c(C#N)c4)CC3)CC2)c2cccnc21 [Example 147]: > 7.00
Cc1ccc2c(n1)C(C)(C)CN2C(=O)[C@H]1CC[C@H](N(C)Cc2cccc(F)c2F)CC1 [Example 174]: > 7.00
Cc1ccc2c(n1)C(C)(C)CN2C(=O)NC1CCN(Cc2ccc(F)cc2)CC1 [Example 22]: > 7.00
CC1(C)CN(C(=O)N2CCC3(CCN(Cc4ccccc4)CC3)C2)c2cccnc21 [Example 89]: > 7.00
Cc1ccc2c(n1)C(C)(C)CN2C(=O)[C@H]1CC[C@H](NCc2ccccc2F)CC1 [Example 188]: > 7.00

Returns the measured pKi for the input molecule. Input: Cc1ccc2c(n1)C(C)(C)CN2C(=O)N1CCC2(CCN(CCC(C)C)CC2)C1 [Example 100]
6.00 to 6.30

Please give the measured pKi for this molecule: Cc1ccc2c(n1)C(C)(C)CN2C(=O)NC1CCN(CCC(C)C)CC1 [Example 25]
> 7.00

Can you look up the measured pKi of Cc1ccc2c(n1)C(C)(C)CN2C(=O)N1CCC(N(C)CC(C)C)CC1 [Example 119] for me?
6.30 to 7.00

State the recorded pKi for this entry: CN(CCc1ccccc1)[C@H]1CCCN(C(=O)N2CCc3ncccc32)C1 [Example 53]
6.30 to 7.00

Please report the recorded pKi for Cc1ccc2c(n1)C(C)(C)CN2C(=O)NCC1CN(Cc2ccccc2)C1 [Example 82] .
6.30 to 7.00

* * *

- target_of_assay: human σ2/TMEM97 receptor (Homo sapiens)
- Construct: expressed in transfected cells; host or cells: HEK-293
- method_notes: Binding assay to human σ2/TMEM97 receptor ([3H]-DTG)
pKi: −log10 of the molar value.
value_kind: pKi

// returns reported pKi for input Cc1ccc2c(n1)C(C)(C)CN2C(=O)N1CCC2(CCN(CCc3ccccc3)CC2)C1
> 7.00

* * *

- target_of_assay: human σ2/TMEM97 receptor (Homo sapiens, UniProt Q5BJF2)
- Construct: expressed in transfected cells; host or cells: HEK-293
- method_notes: Binding assay to human σ2/TMEM97 receptor ([3H]-DTG)
- stated_conditions: transfected HEK-293 membranes, 10 nM [3H]-DTG, 25° C., 120 minutes; read-out: Binding σ-[…] (binding to σ2-receptor expressed as Ki)
pKi: −log10 of the molar value.
Below, each entry is listed with its recorded pKi.

Here is how some compounds turned out for pKi.
CC1(C)CN(C(=O)NC2CCN(Cc3ccccc3)CC2)c2cc(F)cnc21: 6.00 to 6.30
CN(Cc1cccc(F)c1)C1CCN(C(=O)N2CC(C)(C)c3ncccc32)CC1: 6.30 to 7.00
Cc1ccc2c(n1)C(C)(C)CN2C(=O)[C@H]1CC[C@H](N(C)Cc2ccc(F)c(F)c2)CC1: > 7.00

Value lookup for pKi; key = Cc1ccc2c(n1)C(C)(C)CN2C(=O)N1CCC2(CCN(Cc3ccc(F)c(C#N)c3)CC2)CC1
6.30 to 7.00

These entries and their values trace back to patent US20240174671A1.
